Origin of the recorded values: ChEMBL document CHEMBL4049392

test system: Staphylococcus aureus; assay: Antibacterial activity against Staphylococcus aureus ATCC 29213 after 18 to 24 hrs by broth microdilution method; assay type: functional
Readout Type: log10 of MIC (log10 of the value in mg/L)

Molecule | Tested On | log10 of MIC
CCCCC(=O)OC(Cn1ccnc1)c1ccc(Cl)cc1.Cl (stereo unspecified) | Staphylococcus aureus | 1.51
Cl.O=C(CCC(=O)c1ccccc1)OC(Cn1ccnc1)c1ccccc1 (stereo unspecified) | Staphylococcus aureus | 2.11
CC(C)CC(=O)OC(Cn1ccnc1)c1ccc(Cl)cc1.Cl (stereo unspecified) | Staphylococcus aureus | 1.51
Cl.O=C(/C=C/c1ccccc1)OC(Cn1ccnc1)c1ccc(Cl)cc1 (stereo unspecified) | Staphylococcus aureus | 3.01
Cl.O=C(Cc1ccccc1)OC(Cn1ccnc1)c1ccc(Cl)cc1 (stereo unspecified) | Staphylococcus aureus | 1.20
Cl.O=C(OC(Cn1ccnc1)c1ccccc1)C1CCCCC1 (stereo unspecified) | Staphylococcus aureus | 1.81
